Experiment: yeast display, Sf9 membrane polyspecificity reagent, FACS + sequencing; frameworks hold sequencing errors

>  <record_sequence>
QVQLVESGGGLVQAGGSLRLSCAASGLTFVYNNMGWYRQAPGKERELVAAINWSGGRTYYADSVKGRFTISRDNAKNTVYLQMNSLKPEDTAVYYCAALYVPNTPTYKYDYWGQGTQVTVSS

>  <polyreactivity (PSR sort gate)>
low polyreactivity

$$$$
>  <record_sequence>
QVQLVESGVGLVQAGGSLRLRCAASGSILGGNAMGWYRQAPGKERELVAAITFSGGGTYYADSVKGRFTISRDNAKNTVYLQMNSRKPEDTAVYYCNAFAPDYYHVYPAEDYWGQGTQVTVSS

>  <polyreactivity (PSR sort gate)>
low polyreactivity

$$$$
>  <record_sequence>
QVQLVESGGGLVQAGGSLRLSWAAYGRIFLTNAMGWYRQAPGKERELVAAITSGGSTYYADSVKGRFTISRDNAKNTVYLQMNSLKPEDTAVYYCKADTDRYWPYEYDYWGQGTQVTVSS

>  <polyreactivity (PSR sort gate)>
low polyreactivity

$$$$
